- Assay info: yeast display, Sf9 membrane polyspecificity reagent, FACS + sequencing; frameworks hold sequencing errors
Readout type: polyreactivity (PSR sort gate)

Record excerpt, results attached:
[[record]]
query_sequence = "QVHLVESGGGLVQAGGSLRLSCAASGRLFFYALGWYRQSPRKERELVAAISWSGGSTYYADSVKGRFTISRDNAKNTVYLQMNSLKPEDTAVYYCAADYEGWGYDYRGDYWGQGTQVTVSS"
reading = "low polyreactivity"

[[record]]
query_sequence = "QFQLVDSGGGLVQAGGSLRLSCAATGSTQPGYAMGWYRQAPGKERELVAAITSRGGTTYYADSVKGRFTISCDNAKNTVYLQMNSLKPEDTAVYYCAPYTSYASDYWGQGTQVTVSS"
reading = "high polyreactivity"

[[record]]
query_sequence = "QVQLVESGGGLVQAGGSLRLSCAATGSTFHWYAMGWYRQAPGKATELVATITWSGGSTYYADSVKGRFTISRDNAKNTVYLQMNSLKPEDTAVYYCAAETYILLEYDYWGQGTQVTVSS"
reading = "high polyreactivity"

[[record]]
query_sequence = "QVQLVESGGGLVQAGGSLRLICAASGRTFRYYTMGWYRQAPGKERELVAAISWRGGSTYYADSVKGRFTISRDNAKNTVYLQMNSLKPEDTAVYYCAAKRPKRYNEGYYWGQGTQVTVSS"
reading = "high polyreactivity"

[[record]]
query_sequence = "QVQLVESGGGLVQAGGSLLLSCAASGSIFGWYAMGWYRQAPGKERELVAAISSSDGSTYYADSVKGRFTISRDNPKNTVYLQMNSLKPEDTAVYYCATDSAFTYAQYDYWGQGTQVTVSS"
reading = "low polyreactivity"


Batch of 3 sequences: report polyreactivity (PSR sort gate) for each.
1. QVQLVESGGGLVQAGGSLRLSCAASGLIFGYNAMGWYRQAPGKEREFVAGISSSGVSTYYADSVKGRFTISRDNAKNTVYLQMNSLKPEDTAVYYCAADTVDLEFDYWGQGTQVTVSS
2. QVQLLESGGGIVQAGGSLRLSCAASGSIFWGYAMGWYRQAPGKERELVAAISSSGGNTYYADSVKGRFTISRDNAKNTVYLQMNSLQPEETAVYYCAATPEFYGGKITDVSSQYGYWGQGPQVTVSS
3. QVQLVESGGGLVQAGGSLRLSCAASGFIFVKYAMGWYIQAPGKERELVAAITTSGTGTFYADSVKGRFTISRDNAKYTVYLQMNRLKPEDTAVYYCNALGHPGDDWGQGTQVTVSS

1: low polyreactivity; 2: low polyreactivity; 3: low polyreactivity

Could you tell me polyreactivity (PSR sort gate) for each of these sequences? They are listed below.
1. QVQLVESGGGLVQAGGSLRLSCAASGIPRNTMGWYRQAPGKERELVASISTSGGSTYYADSVKGRFTISLDNAKKTVYLQMNSLKPEDTAVYYCAKKAYASRYFIYDYWGQGTQVTVSS
2. QVQLVESGGGLVQAGGSLRLSCAASGRIFRYYAMGWYRQAPGKERELVASITRRGGSTYYADSVKGRFTISRDNAKNTVYLQMNSLKPEDTAVYYCVGDTYYNLGNYWGQGTQVTVSS
3. QVQLEESGGGLVQAGGSLRLSCAASGSTFDRNTMGWYRQAPGKERELVAAITWSSGSTYYADSVKGRFTISRDNAKNTVYLQMNSLKPEDTAVYYCAADPIRYRSRHKYGYWGQGTQVTVSS

["low polyreactivity", "high polyreactivity", "low polyreactivity"]

* * *

- Assay info: yeast display, Sf9 membrane polyspecificity reagent, FACS + sequencing; frameworks hold sequencing errors
Readout type: polyreactivity (PSR sort gate)

Would you please look over these solved cases?
[[record]]
query_sequence = "QVQLVESGGGLVQAGGSLSLRCAASGRTLDVYAMGWYRQAPGKERELVARITSGGSTNYADSVKGRFTISRDNAKNTVYLQMNSLKPEDTSVYYCNAVVYTRPYTRPRYRYDYWGQGTQVTVSS"
reading = "high polyreactivity"

[[record]]
query_sequence = "QVQLVESGGGLVQAGGSLRLSCAASGSIFGYNAKGWYRQAPGKERELVAAINYRGGSTYYADSVKGRFTISRDNAKNTVYLQMNSLKPEDTAVYYCAARYWKDGSTYDYWGQGTQVTVSS"
reading = "high polyreactivity"

[[record]]
query_sequence = "QVQLVESGGGLVQAGGSLRLSCAASGRTFWWYAMGWYRQAPGKERELVAGISGSTGTTHYADSVKGRFTISRDNAKNTVYLQMNSLKPEDTAGYYCAARRRYYRGFLFDYWGQGTQVTVSS"
reading = "high polyreactivity"

[[record]]
query_sequence = "KVQLVESGGGLVQAGGSLRLSCAASGIFLDRNAMGWYRQAPGKERELVAAINSIGGSTYYADSVKGRFTISRDNAKNTVYLQMNSLKPEDTAVFYCAAPSTSSYYWGQGTQVTVSS"
reading = "low polyreactivity"


Note: attention shifts to another entry.
Entry QVQLVESGGGLVQAGGSLRLSCAASGRIFGFYTIGWYRQAPGKERELVATISWSGSGTYYADSVKGRFTISRDNAKNTVYLQMNSLKPEDTAVYYCNADWYYVGYDYWGQGTQVTVSS ; polyreactivity (PSR sort gate) = low polyreactivity

* * *

- Assay info: yeast display, Sf9 membrane polyspecificity reagent, FACS + sequencing; frameworks hold sequencing errors
Readout type: polyreactivity (PSR sort gate)

Worked examples follow.
[[record]]
query_sequence = "QVQHVESGGGLVQAGGSLRLSCAASGRIFPYYAMGWYRQAPGKERELVATITSGGSTYYADSVKGRFTISRDNAKNTVYLQMNSLKPEDTAVYYCAARYPSIYYYSYDYWGQGTQVTVSS"
readout_type = "polyreactivity (PSR sort gate)"
reading = "high polyreactivity"

[[record]]
query_sequence = "QVQLVESGGGLVQAGGSLRLSCAASGSTIVRYAMGWYRQAPGKERELVAAISSRGGSTYYADSVKGRFTNSRDNAKNTVYLQMNSLKAEDTGVYYCAAAQRCTNAYRVGSWGLGTQVTVSS"
readout_type = "polyreactivity (PSR sort gate)"
reading = "high polyreactivity"

[[record]]
query_sequence = "QVQLVESGGGLVQAGGSLRLSCAASGRIFTHNDMGWYRQAPGKERELVAAITSGGRTTYADSVKGRFTISRDNAKNTVYLQMNSLKPEDTAVYYCNADTCLGSLDFDKRDYWGQGTQVTVSS"
readout_type = "polyreactivity (PSR sort gate)"
reading = "low polyreactivity"

[[record]]
query_sequence = "QVQLVESGGGLVQAGGTLRLSCAASGSIFIPYAMGWYRQEPGKERELVAAISGSGTSTNYADSVKGRFTISRDNAKITVYFQMISLKPEDTAVYYCAKGYSNFYRSDYWGQGTQVTVSS"
readout_type = "polyreactivity (PSR sort gate)"
reading = "high polyreactivity"

[[record]]
query_sequence = "QVQLVESGGGLVQEGGSLRISCAASGRIFDSNAMVWYRQAPGKERELVAAISNGGTTNYADSVKGRFTISRDNAKNTVYLQMNSLKPADTAVYYCAARGRVVWYNGGSYRFYYWGQGTQVTVSS"
readout_type = "polyreactivity (PSR sort gate)"
reading = "high polyreactivity"

[[record]]
query_sequence = "HVQLVESGGGLVQAGGSLRLSCAASGSTIGRYAIGWYRQAPGEERELVAAISYSGGSTYYADSVKGRFTISRDNAKNTVYIQMNSLKPEDTAAYYCAKGLSTGRAYRGYDYWGQGTQVTVSS"
readout_type = "polyreactivity (PSR sort gate)"
reading = "high polyreactivity"

[[record]]
query_sequence = "QVQLQESGGGLVQAGGDLRLICAASGNIFRDYIMGWYRQAPGKEREFVAGIDRGANTNYADSVIGRFTISRDNAKNSVFLQMNSRKPEVTAVYYCAVHNAIGPDFIYWGQGTQVTVSS"
readout_type = "polyreactivity (PSR sort gate)"
reading = "low polyreactivity"

[[record]]
query_sequence = "QVQLVESGGGLVQAGGSLRLSCAASGSIFHYYAMGWYRQATGKERELVAAISTSGGSTYYADSVKGRFTISRDNAKNTVYLQMNSLKPEDTAVYYCNAVYYYFPVGDDEYWGQGTQVTVSS"
readout_type = "polyreactivity (PSR sort gate)"
reading = "high polyreactivity"

[[record]]
query_sequence = "QVQIEESGGGLVQAGGSLRLSCAASGRTFYANVMGWSRQAPGIEWELVAAITYSGGSTYYADSVKGRFTISRDNAQNTVYVLMNCLKQEDTADYYCAADNVYTFYYWGQGTLVTVSS"
readout_type = "polyreactivity (PSR sort gate)"
reading = "low polyreactivity"

[[record]]
query_sequence = "QVQLVESGGGLVQAGGSLRLSCAASARNFYANVMGWYRQAPGKEREFVAAIRWSGGRTYYADSVKGRFTISRDNAKNTVYLQMNSLKPEDTAVYYCAADPWDYISYYIYDYWGQGTQVTVSS"
readout_type = "polyreactivity (PSR sort gate)"
reading = "low polyreactivity"


Attention now turns to another entry.
Lab note: measured polyreactivity (PSR sort gate) of QVQLVESGGRLVQAGGSLRLSCSASGLTFQYYAMGWYRQAPGKERELVATINSGGSTKYADSVKGRFTISRDNAKNTVYLQMNRLKPEDTAVYYCAADPYRRYRRPSRYGYWGQGTQVTVSS was high polyreactivity
